target: biotinylated nerve growth factor (NGF) (human, UniProt P01138 122-241, biotin (biotinylated in-house, sites not stated)); assay: FRET; epitope competition with labelled IgGWFL
Sequence (P01138 122-241): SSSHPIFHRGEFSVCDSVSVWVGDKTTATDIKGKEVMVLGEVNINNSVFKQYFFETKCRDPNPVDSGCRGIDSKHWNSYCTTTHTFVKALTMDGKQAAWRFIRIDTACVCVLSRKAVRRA
MEASURE_NAME: IC50
# output: number + unit

Before answering, review these 2 worked examples.
evolved scFvWFL variant 126 reformatted as IgG1 (antibody, V domains shown) VH: QVQLVQSGAEVKKPGSSVKVSCKASGGTFWFGAFTWVRQAPGQGLEWMGGFIPISGLTNLAQNFQGRVTITADESTSTVYMELSSLRSEDTAVYYCARSSRIYDLNPSLTAYYDMDVWGQGTMVTVSS VL: QSVLTQPPSVSAAPGQKVTISCSGSSSDIGNNYVSWYQQLPGTAPKLLIYDNNKRPSGIPDRFSGSKSGTSATLGITGLQTGDEADYYCGTWDSSLSAWVFGGGTKLTVL	5.69 nM
MEDI578 (the parent antibody prior to affinity maturation into MEDI1912) (antibody, V domains shown) VH: QVQLVQSGAEVKKPGSSVKVSCKASGGTFSTYGISWVRQAPGQGLEWMGGIIPIFDTGNSAQSFQGRVTITADESTSTAYMELSSLRSEDTAVYYCARSSRIYDLNPSLTAYYDMDVWGQGTMVTVSS VL: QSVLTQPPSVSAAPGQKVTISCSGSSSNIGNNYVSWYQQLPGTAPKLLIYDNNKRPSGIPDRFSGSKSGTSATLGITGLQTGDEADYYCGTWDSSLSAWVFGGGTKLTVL	36.8 nM

// IC50 lookup, binder = evolved scFvWFL variant 72 reformatted as IgG1 (antibody, V domains shown) VH: QVQLVQSGAEVKKPGSSVKVSCKASGGTSWFGAFTWVRQAPGQGLEWMGGTIPIFGLTNLAQNFQGRVTITADESTSTVYMELSSLRSDDTAVYYCARSSRIYDLNPSLTAYYDMGVWGQGTMVTVSS VL: QSVLTQPPSVSAAPGQKVTISCSGSSSDIGDNYVSWYQQLPGTAPKLLIYDNNKRPSGIPDRFSGSKSGTSATLGITGLQTGDEADYYCGTWDSSLSAWVFGGGTKLTVL , result: 1.91 nM

Source: paper PMC7156504
